# System: D-aminoacylase derived from Sebekia benihana IFO14309
# Measurement Protocol: Influences of inhibitors on the activity of the enzyme
# Type: biochemical
# Details: inhibitor 10 mM
Observed Property: D-Met (mM)
Please reply with the bare figure in mM and do not write the unit itself.

Requested read-out: D-Met. Entry: OC(CS)C(O)CS (stereo not shown) [DTT]
0.055

Requested read-out: D-Met. Entry: [F-].[Na+] [NaF]
1.4

Requested read-out: D-Met. Entry: c1ccc(-c2ccccn2)nc1 [2,2'-Bipyridyl]
1.4

Requested read-out: D-Met. Entry: CCN1C(=O)C=CC1=O [N-ethyl-maleimide]
1.1

* * *

# System: D-aminoacylase derived from Sebekia benihana IFO14309
# Measurement Protocol: Substrate specificity of the aminoacylase
# Format: biochemical
# Details: 20 mM substrate, 50 mM Tris-HCl pH 7.5, 30° C., 5 min
Quick rule for you: Relative activity at 30% or higher means Satisfied, lower means Not satisfied.

Form field: Relative activity at least 30%? Entry: "CSCC[C@@H](NC(C)=O)C(=O)O"
Satisfied

Form field: Relative activity at least 30%? Entry: "CSCC[C@H](NC(C)=O)C(=O)O"
Not satisfied

Form field: Relative activity at least 30%? Entry: "CC(=O)N[C@H](Cc1ccccc1)C(=O)O"
Satisfied

Form field: Relative activity at least 30%? Entry: "CC(=O)N[C@H](CC(N)=O)C(=O)O"
Not satisfied

Form field: Relative activity at least 30%? Entry: "CC(=O)N[C@H](C(=O)O)C(C)C"
Not satisfied

Form field: Relative activity at least 30%? Entry: "CC(=O)N[C@H](Cc1c[nH]c2ccccc12)C(=O)O"
Satisfied

Form field: Relative activity at least 30%? Entry: "CC(=O)N[C@@H](C(=O)O)C(C)C"
Satisfied

Form field: Relative activity at least 30%? Entry: "CC(=O)N[C@@H](CC(C)C)C(=O)O"
Not satisfied

Form field: Relative activity at least 30%? Entry: "CC(=O)N[C@H](C)C(=O)O"
Not satisfied

Form field: Relative activity at least 30%? Entry: "CC(=O)N[C@H](CC(C)C)C(=O)O"
Satisfied
